Assay: Plasma cholesterol and triglyceride levels in huCETP transgenic mice (Example 5)
Type: in vivo
Settings: plasma, 50 mg/kg i.p. twice per week, week 6
e = 2'-O-(2-methoxyethyl) (MOE); d = 2'-deoxy (DNA)
Please go through the items and note down their Triglycerides.
Write the answer as a number in mg/dL, unit excluded.

Identify Triglycerides associated with the substance ISIS 349517: 5-10-5 MOE gapmer CAGCACTTTAATGCCAGTGG (sugars from the 5' end e5 d10 e5, backbone and methylation of C not given here)
103

Tell me measured Triglycerides for ISIS 349515: 5-10-5 MOE gapmer AACTTCCACCACGCTGGAGG (sugars from the 5' end e5 d10 e5, backbone and methylation of C not given here) please.
115

Determine from records and report Triglycerides for ISIS 349512: 5-10-5 MOE gapmer TTGCCTTCTGCTACAAGCCC (sugars from the 5' end e5 d10 e5, backbone and methylation of C not given here)
92

# return recorded Triglycerides for entry ISIS 349511: 5-10-5 MOE gapmer CCCGACCTCCTTGGAGACTT (sugars from the 5' end e5 d10 e5, backbone and methylation of C not given here)
84
